# subjectOfTest: recombinant cynomolgus BCMA Fc(kih) (cynomolgus, UniProt A0A2K5UD97 4-51)
# Sequence (A0A2K5UD97 entry or part of it): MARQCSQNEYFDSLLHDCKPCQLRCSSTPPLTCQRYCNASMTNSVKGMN
# experimentSummary: SPR (Biacore T200), IgG captured via anti-human Fab, BCMA Fc(kih) as analyte, 1:1 Langmuir fit
pKd: −log10 of the molar value.

- binder: "Mab 42 IgG (antibody, V domains shown, also called antibody 42; clone 42) VH: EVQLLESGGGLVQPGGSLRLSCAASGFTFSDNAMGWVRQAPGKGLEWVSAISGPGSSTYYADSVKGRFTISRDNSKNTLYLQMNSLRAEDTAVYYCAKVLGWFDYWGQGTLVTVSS VL: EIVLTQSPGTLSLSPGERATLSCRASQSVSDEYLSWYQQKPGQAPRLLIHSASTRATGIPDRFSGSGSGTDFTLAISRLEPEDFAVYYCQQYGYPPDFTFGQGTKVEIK"
  pKd: 9.19
- binder: "Mab 22 IgG (antibody, V domains shown, also called antibody 22; clone 22) VH: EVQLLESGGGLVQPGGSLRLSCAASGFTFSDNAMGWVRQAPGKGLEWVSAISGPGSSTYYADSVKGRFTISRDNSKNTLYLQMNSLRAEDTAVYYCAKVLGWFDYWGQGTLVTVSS VL: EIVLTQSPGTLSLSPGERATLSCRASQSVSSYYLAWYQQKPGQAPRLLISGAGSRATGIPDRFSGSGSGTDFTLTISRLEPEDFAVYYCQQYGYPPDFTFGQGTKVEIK"
  pKd: 9.01
- binder: "Mab 33 IgG (antibody, V domains shown) VH: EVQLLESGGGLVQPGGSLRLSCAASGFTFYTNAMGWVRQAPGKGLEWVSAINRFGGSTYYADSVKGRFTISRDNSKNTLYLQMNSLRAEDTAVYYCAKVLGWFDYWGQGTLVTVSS VL: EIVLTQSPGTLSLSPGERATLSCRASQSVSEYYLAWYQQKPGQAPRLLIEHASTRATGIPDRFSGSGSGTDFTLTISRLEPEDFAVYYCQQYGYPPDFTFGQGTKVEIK"
  pKd: 9.13
